Measured EC50 accompanies every entry in the list below.
target: human Endothelial Differentiation G-protein Coupled Receptor 3 (EDG3), S1P3 receptor (Homo sapiens); construct: expressed in transfected cells; host or cells: GeneBLAzer EDG3-Ga15-NFAT-bla HEK 293T; experiment: S1P3 Assay (GeneBLAzer EDG3-Ga15-NFAT-bla HEK 293T beta-lactamase reporter, agonist dose response); format: cell-based; settings: EDG3-Ga15-NFAT-bla HEK 293T cells, blue/green emission ratio, 10 point dose response, free base or salt form; read-out: pEC50 (S1P3 assay) (converted)
Where a name gives a salt, the structure may show the parent alone.

Record excerpt, results attached:
CCc1c(CN2CCC[C@H](C(=O)O)C2)cccc1-c1nnc(-c2ccc(CC(C)C)c(C#N)c2)s1 :: > 10 µM
CCc1c(-c2nsc(-c3ccc(CC(C)C)c(C#N)c3)n2)cccc1C1CN(CCCC(=O)O)C1 [Example 104, trifluoroacetate] :: > 10 µM
CCc1c(CN2CCC(C(=O)O)CC2)cccc1-c1nnc(-c2ccc(OC(C)C)c(C(F)(F)F)c2)s1 :: > 3.16 µM

**Q:** // query EC50 value for entry CCc1c(CCN2CC(C(=O)O)C2)cccc1-c1cnc(-c2ccc(OC(C)C)c(C#N)c2)s1 [Example 34, trifluoroacetate]
**A:** > 3.16 µM

**Q:** Okay, and COc1c(CCN2CC(C(=O)O)C2)cc(F)cc1-c1nnc(-c2ccc(OC(C)C)c(C(F)(F)F)c2)s1 ?
**A:** > 10 µM

**Q:** What would you report for CCc1c(CCN2CCC[C@H](C(=O)O)C2)cccc1-c1nsc(-c2ccc(CC(C)C)c(C#N)c2)n1 ?
**A:** > 3.16 µM

**Q:** Field entry: CCc1c(CC2CCN(CCC(=O)O)CC2)cccc1-c1nsc(-c2ccc(OC(C)C)c(Cl)c2)n1 [Example 106, trifluoroacetate]
**A:** > 3.16 µM

----------
Listing of recorded EC50 by entry.
target: human Endothelial Differentiation G-protein Coupled Receptor 3 (EDG3), S1P3 receptor (Homo sapiens, UniProt Q99500); construct: expressed in transfected cells; host or cells: GeneBLAzer EDG3-Ga15-NFAT-bla HEK 293T; assay: S1P3 Assay (GeneBLAzer EDG3-Ga15-NFAT-bla HEK 293T beta-lactamase reporter, agonist dose response); format: cell-based; details: EDG3-Ga15-NFAT-bla HEK 293T cells, blue/green emission ratio, 10 point dose response, free base or salt form; read-out: pEC50 (S1P3 assay) (converted)
Sequence (Q99500 whole entry): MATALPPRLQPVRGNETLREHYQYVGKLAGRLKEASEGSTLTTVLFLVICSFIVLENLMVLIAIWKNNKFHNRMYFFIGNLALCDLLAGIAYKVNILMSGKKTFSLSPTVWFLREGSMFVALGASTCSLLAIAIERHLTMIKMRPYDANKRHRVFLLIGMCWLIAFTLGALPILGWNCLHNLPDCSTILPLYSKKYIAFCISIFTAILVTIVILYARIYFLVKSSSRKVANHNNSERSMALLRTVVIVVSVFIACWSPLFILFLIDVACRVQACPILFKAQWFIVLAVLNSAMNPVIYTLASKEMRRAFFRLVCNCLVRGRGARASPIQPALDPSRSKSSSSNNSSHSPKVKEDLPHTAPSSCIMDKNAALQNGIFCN
Structures can show the parent of a compound that is named as a salt.

Consider the worked cases shown below.
CCc1c(CN2CCC[C@H](C(=O)O)C2)cccc1-c1nnc(-c2ccc(OC(C)C)c(Cl)c2)s1 :: > 10 µM
COc1c(CCN2CC(C(=O)O)C2)cc(F)cc1-c1cnc(-c2ccc(OC(C)C)c(Cl)c2)s1 [Example 33, trifluoroacetate] :: > 3.16 µM

**Q:** Value lookup for EC50; key = CCc1c(CCN2CCC[C@H](C(=O)O)C2)cccc1-c1nnc(-c2ccc(OC(C)C)c(Cl)c2)s1
**A:** > 3.16 µM

**Q:** Lookup CCc1c(-c2nsc(-c3ccc(OC(C)C)c(Cl)c3)n2)cccc1C1CCN(CC(=O)O)CC1 [Example 99, trifluoroacetate]
**A:** > 3.16 µM

**Q:** Same question, CCc1c(CCN2CCC[C@H](C(=O)O)C2)cccc1-c1nsc(-c2ccc(OC(C)C)c(Cl)c2)n1 this time
**A:** > 3.16 µM

**Q:** Another compound: CCc1c(CCN2CC(C(=O)O)C2)cccc1-c1cnc(-c2ccc(OC(C)C)c(Cl)c2)s1 [Example 41, trifluoroacetate]
**A:** > 3.16 µM

**Q:** Next up: CCc1c(CCN2CCC(C(=O)O)C2)cccc1-c1nnc(-c2ccc(OC(C)C)c(Cl)c2)s1 (stereo not shown) [Example 12, trifluoroacetate]
**A:** > 3.16 µM
